target: human PD1 on cells (human, UniProt Q15116 25-288); test: cell-based or functional assay
Sequence (Q15116 25-288 limits assumed): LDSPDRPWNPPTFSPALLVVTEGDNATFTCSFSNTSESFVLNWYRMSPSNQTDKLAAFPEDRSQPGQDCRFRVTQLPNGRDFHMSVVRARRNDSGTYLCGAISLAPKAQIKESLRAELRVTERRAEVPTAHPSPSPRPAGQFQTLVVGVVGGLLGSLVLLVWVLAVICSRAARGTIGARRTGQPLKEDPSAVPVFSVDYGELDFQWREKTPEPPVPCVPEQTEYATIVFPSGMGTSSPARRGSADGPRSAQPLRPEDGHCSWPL
Listed binders paired with reported PD1 blockade reporter assay EC50
Measurement Name: PD1 blockade reporter assay EC50

{"Binder": "P-1271 (antibody, human IgG1, kappa, V domains shown) VH: QVQLVQSGAEVKKPGASVKVSCKASGYTFTNYYMYWVRQAPGQGLEWMGGINPSNGGTNFAQKFQGRVTLTTDSSTSTAYMELSSLRSDDTAVYYCARRDYRFDMGFDYWGQGTLVTVSS VL: EIVLTQSPATLSLSPGERATLSCRASQGVSTSGYSYLHWYQQKPGQAPRLLIYLASYRESGVPARFSGSGSGTDFTLTISSLEPEDFAVYYCQHSRDLPLTFGGGTKVEIKR", "Obs Value": "0.66 nM"}
{"Binder": "P-1174 (antibody, human IgG1, kappa, V domains shown) VH: QVQLVQSGVEVKKPGASVKVSCKASGYTFTNYYMYWVRQAPGQGLEWMGGINPSNGGTNFAQKFQGRVTLTTDSSTTTAYMELKSLQFDDTAVYYCARRDYRFDMGFDYWGQGTTVTVSS VL: EIVLTQSPATLSLSPGERATLSCRASQGVSTSGYSYLHWYQQKPGQAPRLLIYLASYRESGVPARFSGSGSGTDFTLTISSLEPEDFAVYYCQHSRDLPLTFGGGTKVEIKR", "Obs Value": "0.67 nM"}
{"Binder": "P-1129 (antibody, human IgG1, kappa, V domains shown) VH: QVQLVQSGVEVKKPGASVKVSCKASGYTFTNYYMYWVRQAPGQGLEWMGGINPSNGGTNFNEKFKNRVTLTTDSSTTTAYMELKSLQFDDTAVYYCARRDYRFDMGFDYWGQGTTVTVSS VL: EIVLTQSPATLSLSPGERATLSCRASQGVSTSGYSYLHWYQQKPGQAPRLLIYLASYRASGVPARFSGSGSGTDFTLTISSLEPEDFAVYYCQHSRDLPLTFGGGTKVEIKR", "Obs Value": "0.58 nM"}
{"Binder": "P-1201 (antibody, human IgG1, kappa, V domains shown) VH: EVQLLESGGGLVQPGGSLRLSCAASGFTFTNYYMYWVRQAPGKGLEWVSGINPSNGGTNFADKFKGRFTLSTDSSKNTLYLQMNSLRAEDTAVYYCARRDYRFDMGFDYWGQGTLVTVSS VL: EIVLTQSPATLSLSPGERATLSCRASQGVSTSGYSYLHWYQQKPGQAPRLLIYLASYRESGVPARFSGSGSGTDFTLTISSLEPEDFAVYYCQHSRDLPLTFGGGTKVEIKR", "Obs Value": "1.28 nM"}
